# TESTED_ON: T1, OX40 on OX40-overexpressing cells (OX40过表达细胞表面OX40) (UniProt P43489 29-277, limits assumed)
# T1 construct: whole, on cells; The cell line and the construct of the overexpressing cells are not described; also called CD134; TNFRSF4
# T1 sequence (looked up): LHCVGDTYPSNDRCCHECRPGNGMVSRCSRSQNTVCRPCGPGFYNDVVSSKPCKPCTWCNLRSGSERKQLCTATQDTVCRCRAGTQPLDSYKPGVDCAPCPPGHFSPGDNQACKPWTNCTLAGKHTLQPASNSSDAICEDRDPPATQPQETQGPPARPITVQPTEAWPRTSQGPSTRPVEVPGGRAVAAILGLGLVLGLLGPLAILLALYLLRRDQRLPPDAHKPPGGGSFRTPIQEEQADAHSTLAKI
# ASSAY_OVERVIEW: flow cytometry, hybridoma supernatant on OX40-overexpressing cells, goat anti-mouse IgG-PE
Label Not met if Y586通道PE荧光值 falls below 300000; label Met in every other case.

BINDER: 28E3-4 (antibody, V domains shown) VH: QVQLQESGPGLVKPSGTLSLTCAVSGGSISRSNWWTWVRQSPGKGLEWIGEIYHSGNTNYNPSLKSRVTISLDKSKNQFSLKLSSVTAADTAVYYCASSGSLYMDVWGKGTTVTVSS VL: DIQMTQSPSSLSASVGDRVTISCRASQSTSSYLNWYQQKPGKAPRLLIYGASSLQSGVPSRFSGSGSGTDFILTISSLQPEDFATYYCQQSYSIPITFGQGTRLEIKR
CLASS_LABEL: Not met
--
BINDER: 20G6-7-1 (antibody, V domains shown) VH: QVQLQESGPGLVKPSGTLSLTCAVSGGSISSSNWWSWVRQPPGKGLEWIGEIYHSGNTNYNPSLKSRVTISVDKSKNQFSLKLSSVTAADTAVYYCARGGTTFDYWGQGTLVTVSS VL: EIVLMQYPGTLSLSSGERATLSCRASQSVSSRYLAWYQQKPGQAPRLLIYGASNRASGMPDRFSGSGSGTEFTLTISSLEPEDFAMYYCQQYGSSPITFGQGTRVEIKR
CLASS_LABEL: Met
--
BINDER: 15A7-6 (antibody, V domains shown) VH: QVQLQESGPGLVKPSGTLSLTCAVSGGSINSSSWWSWVRQPPGKGLEWIGEIYHSGDTNYNPSLKSRVAISVDKSKNQFSLKLSSVTAADTAVYYCARDQADYFGSGNYVYWGQGTLVTVSS VL: EIVLMQYPGTLSLSSGERRVLSCRPSQSVSSSYLAWYQQKPGQAPRLLIYGASSRASGIPDRFSGSGSGTDFTLTISRLEPEDFAVYYCQQYGSLPITFGQGTRVEIKR
CLASS_LABEL: Not met
--
BINDER: 16E4-10-5 (antibody, V domains shown) VH: QVQLQESGPGLVKPSGTLSLTCDVSGGSISSSNWWSWVRQPPGKGLEWIGEIYHSGSTNYNPSLKSRVTISVDKSKNQVSLKLNSVTAADTAVYYCARGDILLWFGGQGTLVTVSS VL: EIVLTQSPGTLSLSPGERATLSCRASQSVSSRYLAWYQQKPGQAPRLLIYGASNRATGMPDRFSGSGSGTDFTLTISRLEPEDFAVYYCQQYGSSPITFGQGTRLEIKR
CLASS_LABEL: Met
--
BINDER: 14D3-7-3 (antibody, V domains shown) VH: EVQLVESGGGLVKPGGSLRLSCAASGFTFSNAWMSWVRQAPGKGLEWVGRIKRKTDGGTTDYATPVKGRFTISRDASKNTLYLQMNSLKTEDTAVYYCTSAARRGYFDIWGRGTLVTVSS VL: EIVLTQSPGTLSLSPGERATLSCRASQSVSSRYLAWYQQKPGQAPRLLIYGASNRATGMPDRFSGSGSGTDFTLTISRLEPEDFAMYYCQQYGSSPITFGQGTRLEIKR
CLASS_LABEL: Not met
--
BINDER: 24B9-10 (antibody, V domains shown) VH: QVQLQESGPGLVKPSGTLSLTCAVSGGSISSSNWWTWVRQPPGKGLEWIGEIYHSGSTNYNPSLKSRVTISVDKSKNQFSLKLSSVTAADTAVYYCARTGPIVTTEYWGQGTLVTVSS VL: EIVLTQSPGTLSLSPGERATLSCRASQSVSSGYLAWYQQKPGQAPRLLIYGASIRATGIPDRFSGSGSGTDFTLTISRLEPEDFALYYCQQYGSSPLTFGGGTKVEIKR
CLASS_LABEL: Met
--
BINDER: 17D5-11 (antibody, V domains shown) VH: QVQLQESGPGLVKPSETLSLTCAVSGGSINSTNWWSWVRQPPGKGLEWIGEIYHSGSTNYNPSLKSRVTISVDKSKNQFSLKLSSVTAADTAVYYCARGGAVALDYWGQGTLVTVSS VL: EIVLTQSPGPLSLSPGDRATLSCRASQTVSSSYLAWYLQKPGQAPRLLIYGASIRATGIPDRFSGSGSGTDFTLTISRLEPEDFAVYYCQQYGNSPITFGQGTRLEIKR
CLASS_LABEL: Met
--
BINDER: 1F10-12-3 (antibody, V domains shown) VH: QVQLQESGPGLVKPSGTLSLTCAVSGGSISNSNWWNWVRQPPGRGLEWIGEIYHSGSTNYNPSLKSRVTISVDKSKNQFSLKLTSVTAADTAVYYCARYSTPFFDYWGQGNLVTVSS VL: DIQMTQSPSSLSASVGDRVTITCRASQSISNYLNWYQQKQGKAPKLLIYGASSLQSGVPSRFSGSGSGTDFTLTINSLQPEDFATYCCQQSYNNPLTFGGGTKVEIKR
CLASS_LABEL: Not met
--
BINDER: 24A12-12 (antibody, V domains shown) VH: QVQLQESGPGLVKPAGTLSLTCAVSGGSISSSNWWNWVRQPPGKGLEWIGEIYHSGSTNYNPSLKSRVTISVDTSKNQFSLKLTSVTAADTAVYYCARTGPTVTTDYWGQGTLVTVSS VL: EIVLTQSPGTLSLSPGERATLSCRASQSVSSSYLAWYQQKPGQAPRLLIYGASYRATGMPERFSGSGSGTDFTLTISRLEPEDFAIYYCQQYGRSPLTFGGGTKVEIKR
CLASS_LABEL: Met
--
BINDER: 20D2-12 (antibody, V domains shown) VH: QVQLVESGGGLVKPGGSLRLSCAASGFTFSDYYMSWIRQAPGRGLEWISYISGSDSTIYYEDSVMGRFTISRDNAKNSLYLQMNSLRAEDTAVYYCARDRDVYGYSGYGYFDYWGQGTLVTVSS VL: EIVLTQSPGTLSLSPGERATLSCRASQSVSSRYLAWYQQKPGQAPRLLIYGASNRATGMPDRFSGSGSGTDFTLTISRLEPEDFAVYYCQQYGSSPITFGQGTRLEIKR
CLASS_LABEL: Met

Values from patent CN114106174A
